Sourced from patent US12161642B2

Tested Target: recombinant human FECH (Homo sapiens (Human), UniProt P22830)
Sequence (P22830 55-423): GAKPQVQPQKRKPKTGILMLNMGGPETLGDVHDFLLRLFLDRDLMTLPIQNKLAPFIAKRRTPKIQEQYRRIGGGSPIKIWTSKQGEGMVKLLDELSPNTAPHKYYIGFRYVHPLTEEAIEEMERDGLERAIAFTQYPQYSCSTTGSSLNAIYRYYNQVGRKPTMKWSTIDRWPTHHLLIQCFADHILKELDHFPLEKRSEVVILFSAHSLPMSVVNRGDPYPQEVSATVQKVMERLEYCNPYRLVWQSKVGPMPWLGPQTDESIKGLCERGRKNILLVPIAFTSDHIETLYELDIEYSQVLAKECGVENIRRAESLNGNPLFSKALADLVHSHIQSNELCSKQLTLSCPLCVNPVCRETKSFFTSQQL
Test Details: FECH enzymatic activity assay (Ni2+ mesoporphyrin IX formation, absorbance at 550 nm)
Assay type: biochemical
Test Conditions: recombinant FECH; read-out: FECH IC50
The following molecules are shown together with reported IC50 values.
Give just the number in µM; leave the unit off.

Guide cases for IC50, answers given:
INSERT INTO results (molecule, measurement_name, value_units, value_reported) VALUES
  ('CCCc1cc(=O)n2nc(CNc3cccc(C(F)(F)F)c3)nc2[nH]1', 'IC50', 'µM', 4.39),
  ('Cc1ccc(NCc2nc3[nH]c(C(C)C)cc(=O)n3n2)cc1', 'IC50', 'µM', 16.8),
  ('O=c1c2c([nH]c3nc(CNc4cccc(Cl)c4)nn13)CCC2', 'IC50', 'µM', 1.57);

Sample CCCc1cc(=O)n2nc(CNc3ccc(Cl)cc3)nc2[nH]1 [Example 5f] — what was its IC50? 0.0916

---

Tested Target: recombinant human FECH (Homo sapiens (Human), UniProt P22830)
Test Details: FECH enzymatic activity assay (Ni2+ mesoporphyrin IX formation, absorbance at 550 nm)
Type: biochemical
Test Conditions: recombinant FECH; read-out: FECH IC50
Listing: pIC50 of selected compounds
Please keep in mind that pIC50 is minus log10 of the molar concentration; only the number is needed.

INSERT INTO results (compound, value_reported) VALUES
  ('Cc1ccc(NCc2nc3[nH]c(C)cc(=O)n3n2)cc1', 4.65),
  ('COc1ccc(NCc2nc3[nH]c(C)c(Cc4ccc(Cl)cc4)c(=O)n3n2)cc1', 7.21),
  ('CCCc1cc(=O)n2nc(CNc3cccc(OC)c3)nc2[nH]1', 5.54),
  ('CCCc1cc(=O)n2nc(CNc3cccc(Cl)c3C)nc2[nH]1', 5.67);

Read the next record carefully.
# get_value(readout='pIC50', item= CCCc1cc(=O)n2nc(CNc3ccccc3-c3ccccc3)nc2[nH]1 ) 4.56

---

System: HRECs
Test Details: HREC proliferation assay (alamarBlue), GI50 determination
Format: cell-based, human
Test Conditions: Homo sapiens, HREC, 44 h, proliferation of HRECs
Experimental: Human retinal microvascular endothelial cells (HRECs) were cultured in EGM-2 medium (Lonza). Cells (2500/well) in EGM-2 medium were plated in 48 wells in the center of a 96-well black with clear bottom TC treated plate are allowed to attach overnight. […] The assay was completed with a read of fluorescence at excitation of 560 nm and emission of 590 nm. GI50 values were determined using GraphPad Prism software.
Measurement Name: GI50 (µM)
Expressed in µM, but write only the number.

Recorded GI50, per entry:
INSERT INTO results (compound, tested_target, value_reported) VALUES
  ('CC(C)(C)c1ccc(-c2nc3[nH]c(CNc4ccc5ccccc5n4)cc(=O)n3n2)cc1', 'HRECs', 92.5),
  ('CCCc1cc(=O)n2nc(CNc3ccccc3Cl)nc2[nH]1', 'HRECs', 25.7),
  ('CCc1ccccc1NCc1nc2[nH]c(C)c(Cc3ccc(Cl)cc3)c(=O)n2n1', 'HRECs', 74.6);

Bench note: what GI50 did CCCc1cc(=O)n2nc(CNc3ccc(C)cc3)nc2[nH]1 show? 28.3

And CCCc1cc(=O)n2nc(CNc3cccc(OC)c3)nc2[nH]1 ? 1.61
